method-summary: Cytotoxicity against human HepG2.2.15 cells by MTT assay
Format: cell-based, HepG2 2.2.15
recorded-metric: log10 CC50 (log10 of the value in µM)
Friendly reminder: values = log10 of CC50, unit µM.

Solved cases (8 shown):
C=C1CC[C@@H]2[C@](C)(COC(C)=O)[C@H](OC(C)=O)CC[C@@]2(C)[C@@H]1C/C=C1\C=COC1=O = 2.47
C=C1CC[C@@H]2[C@](C)(CO)[C@H](OC(=O)CCCC)CC[C@@]2(C)[C@@H]1C/C=C1\C=COC1=O = 2.10
C=C1CC[C@@H]2[C@](C)(CO)[C@H](OC(=O)c3ccco3)CC[C@@]2(C)[C@@H]1C/C=C1\C=COC1=O = 1.62
C=C1CC[C@@H]2[C@](C)(COC(C)=O)[C@H](O)CC[C@@]2(C)[C@@H]1C/C=C1\C=COC1=O = 2.52
C=C1CC[C@@H]2[C@](C)(COC(=O)c3cccnc3)[C@H](O)CC[C@@]2(C)[C@@H]1C/C=C1\C=COC1=O = 3.31
C=C1CC[C@@H]2[C@](C)(CO)[C@H](O)CC[C@@]2(C)[C@@H]1/C=C/C1=CC(C(C)(C)O)OC1=O (stereo not given in full) = 2.09
C=C1CC[C@H]2[C@@](C)(CCC(=O)[C@@]2(C)C=O)[C@@H]1C/C=C1\C=COC1=O = 2.98
C[C@]1(CO)[C@H]2CC[C@@]3(CO3)[C@@H](/C=C/C3=CCOC3=O)[C@]2(C)CC[C@H]1O = 3.26

Okay, now this molecule:
Find the recorded log10 CC50 belonging to C=C1CC[C@H]2[C@@](C)(CCC(=O)[C@@]2(C)C=O)[C@@H]1/C=C/C1=CCOC1=O and report it. 2.44

====

System: Hepatitis B virus
method-summary: Antiviral activity against HBV infected in human HepG2.2.15 cells assessed as inhibition of hepatitis B surface antigen secretion by ELISA
Assay type: functional, organism-based
particulars: HepG2 2.2.15
Give measured log10 of IC50 for each item. Keep answers brief.
Friendly reminder: values = log10 of IC50, unit µM.

Solved cases (3 shown):
C=C1CC[C@@H]2[C@](C)(COC(=O)c3ccco3)[C@H](OC(=O)c3ccco3)CC[C@@]2(C)[C@@H]1/C=C/C1=CCOC1=O = 3.15
C=C1CC[C@@H]2[C@](C)(COC(=O)c3cccs3)[C@H](OC(=O)c3cccs3)CC[C@@]2(C)[C@@H]1/C=C/C1=CCOC1=O = 3.16
C=C1CC[C@@H]2[C@](C)(COC(=O)c3ccccc3)[C@H](O)CC[C@@]2(C)[C@@H]1C/C=C1\C=COC1=O = 2.94

Dear reader, for each entry below, please note its log10 of IC50.
1. C=C1CC[C@@H]2[C@](C)(COC(C)=O)[C@H](O)CC[C@@]2(C)[C@@H]1/C=C/C1=CCOC1=O
2. C=C1CC[C@@H]2[C@](C)(CO)[C@H](OC(=O)c3ccco3)CC[C@@]2(C)[C@@H]1C/C=C1\C=COC1=O
3. C=C1CC[C@@H]2[C@](C)(COC(=O)c3ccco3)[C@H](O)CC[C@@]2(C)[C@@H]1/C=C/C1=CCOC1=O
4. C=C1CC[C@@H]2[C@](C)(COC(=O)c3cccnc3)[C@H](O)CC[C@@]2(C)[C@@H]1/C=C/C1=CCOC1=O
5. C=C1CC[C@H]2[C@@](C)(CCC(=O)[C@@]2(C)C=O)[C@@H]1C/C=C1\C=COC1=O

2.75
2.89
1.28
1.60
2.71

Every entry's value here was drawn from ChEMBL document CHEMBL3259753.
